# assay-system: T1, monovalent hVISTA-ECD (human VISTA extracellular domain with His tail) (human, UniProt Q9H7M9 33-193)
# T1 construct: analyte flowed over captured antibody; also called huVISTA-His
# T1 sequence (Q9H7M9 other isoform, or with tags, fused parts or gaps limits assumed): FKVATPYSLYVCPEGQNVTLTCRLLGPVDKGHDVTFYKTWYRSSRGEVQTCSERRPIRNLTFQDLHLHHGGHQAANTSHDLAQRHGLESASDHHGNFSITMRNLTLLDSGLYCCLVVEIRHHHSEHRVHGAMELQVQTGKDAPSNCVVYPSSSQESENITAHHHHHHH
# assay-info: SPR, pH 7.4
measured-property: koff (s⁻¹)
State the answer as a number, implicitly in s⁻¹.

Inquiry: Give a short answer stating reported koff for P1-065333 (41F11_VH_T28P/Y50W/S55E/L96E/Y100E VK_A64G) (antibody, human IgG1, kappa, V domains shown, IgG1.3; also called P1-065333-1; VISTA.4 pH-independent progeny) VH: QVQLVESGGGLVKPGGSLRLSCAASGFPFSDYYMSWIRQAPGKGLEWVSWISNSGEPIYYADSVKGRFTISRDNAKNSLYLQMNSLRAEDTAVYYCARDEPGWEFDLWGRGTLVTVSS VL: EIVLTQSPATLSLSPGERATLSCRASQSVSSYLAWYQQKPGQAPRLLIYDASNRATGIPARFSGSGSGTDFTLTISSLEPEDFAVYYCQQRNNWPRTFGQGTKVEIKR .
Reply text: 0.000883

These entries and their values trace back to patent US20220073617A1.
